These data points were gathered from PubChem BioAssay (NCI).

METHOD: NCI Yeast Anticancer Drug Screen. Data for the bub3 strain (AID 167)
MEASUREMENT CONTEXT: S. cerevisiae bub3 mutant strain, at 50.0 µM
About 79,000 compounds went through this panel and 15% of them were active in at least one assay; those are over-represented in the sample as a whole. Calls of active or inactive are those of the source. Rule as the data show it: active = growth inhibition above about 70%; inactive = the rest.
Select the correct class. Options are active, inactive and nothing else.

Problem: # fetch the recorded call for `CN(C)C(=O)Sc1cc(Cl)c(S(=O)(=O)F)cc1Cl` here
Result: inactive

Problem: # fetch the recorded call for `O=P(O)(Nc1ccccc1)Nc1ccccc1` here
Result: inactive

Problem: # fetch the recorded call for `CC1(C)CN1C1=C(F)C(=O)C(N2CC2(C)C)=C(F)C1=O` here
Result: inactive

Problem: # fetch the recorded call for CCOC(=O)C(C)(Br)CC (stereo not drawn) here
Result: inactive

Problem: # fetch the recorded call for `N#CC(C#N)=C(C#N)C#N` here
Result: inactive

Problem: # fetch the recorded call for Cc1c[nH]c2c1C13CC1CN(C(=O)c1cc4cc(NC(=O)c5cc6ccccc6o5)ccc4[nH]1)C3=CC2=O (stereo not drawn) here
Result: active

Problem: # fetch the recorded call for `[Cu].[NH2-].[NH2-].[NH2-].[NH2-]` here
Result: inactive

Problem: # fetch the recorded call for `CCOP(=O)(OCC)/C(C#N)=C/c1ccc(OC)cc1` here
Result: inactive

Problem: # fetch the recorded call for `CNC(=O)Oc1cc(C)cc(C(C)C)c1` here
Result: inactive

Problem: # fetch the recorded call for `Nc1nc(N)c2[nH]c(N)nc2n1` here
Result: inactive

Problem: # fetch the recorded call for COc1cc2c(cc1OC)C(c1ccc(O)c(O)c1)CNC2 (stereo not drawn) here
Result: inactive

Problem: # fetch the recorded call for `O=C(O)c1cc([N+](=O)[O-])cc([N+](=O)[O-])c1` here
Result: inactive

Problem: # fetch the recorded call for `Oc1ccc(Cl)cc1Br` here
Result: inactive
